Sourced from ChEMBL document CHEMBL4622839

Assignment: determine reported pIC50 for the given compounds.
target-entity: Lactoylglutathione lyase (Homo sapiens)
Sequence (Q04760 whole entry): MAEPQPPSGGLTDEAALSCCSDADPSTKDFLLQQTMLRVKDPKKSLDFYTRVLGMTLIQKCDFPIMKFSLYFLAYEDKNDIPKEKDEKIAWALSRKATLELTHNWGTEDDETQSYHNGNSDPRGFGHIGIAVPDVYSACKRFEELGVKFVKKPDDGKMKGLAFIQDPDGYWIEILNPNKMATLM
assay: Inhibition of recombinant human Glyoxalase-1 expressed in Escherichia coli BL21 (DE3) assessed as inhibition of S-D-lactoylglutathione formation using MG and reduced glutathione as substrate measured for 2 mins by spectrophotometric method
Answers are plain numbers, as −log10 of the molar value.

{"compound": "CC(C)(O)C1Cc2c(cc(O)c3c(=O)c(-c4ccc(O)cc4)coc23)O1 (racemic)", "pIC50": 3.96}
{"compound": "CC(C)(O)[C@H]1Cc2c(cc(O)c3c(=O)c(-c4ccc(O)cc4)coc23)O1", "pIC50": 4.00}

So, CC(C)(O)[C@@H]1Cc2c(cc(O)c3c(=O)c(-c4ccc(O)cc4)coc23)O1 ? Its pIC50 was 4.00
